Quick reference for composite z-score among some molecules
assay: binders from COS7 lysate, DM2A8 probe, primary screen, torsin A project, cell lysate, small-molecule microarray, fluorescence 635/667 (AID 1065)
condition_info: higher = more signal, COS7 lysate expressing mutant human TOR1A

molecule: CC(C)=NOC[C@@H](O)COCc1ccco1
composite z-score: 2.26
--
molecule: CC(C)=CCCC(C)=CCON=C1C[C@@H](O)[C@@H](O)[C@@H]2[C@@H]3C(=O)N([C@@H](C)c4ccccc4)C(=O)[C@@H]3CC[C@H]12
composite z-score: 0.384
--
molecule: CC(C)CON=C1C[C@@H](O)[C@@H](O)[C@@H]2[C@@H]3C(=O)N(c4cccc(Oc5ccccc5)c4)C(=O)[C@@H]3CC[C@H]12
composite z-score: 0.459
--
molecule: CC(C)=NOCc1ccc(-c2cn([C@@H]3COC[C@H]3O)nn2)cc1
composite z-score: 0.032
--
molecule: Cc1cc2c(nc1C)CCCN2CC(C)ON=C[C@@H](C)[C@H](OCc1ccccc1)C(C)C (stereo partly drawn)
composite z-score: 0.478
--
molecule: O=C1[C@H]2[C@H]3[C@H](O)[C@H](O)CC(=NOCc4ccccc4)[C@H]3CC[C@H]2C(=O)N1Cc1ccccc1
composite z-score: 0.887
--
molecule: CCOC(=O)NN=C1C[C@@H](O)[C@@H](O)[C@@H]2[C@@H]3C(=O)N(Cc4ccc5c(c4)OCO5)C(=O)[C@@H]3CC[C@@H]12
composite z-score: 0.16
--
molecule: CO[C@@H]1COC(=O)CC=C[C@H](C)COC(=O)[C@H](C)NC(=O)CC=C[C@H]1C
composite z-score: 1.75
